Read-out: Matrix Metallopeptidase 9 (MMP9), MMP9 (gene 4318)
Assay: BSK_KF3CT_MMP9: BioMAP Diversity Plus: KF3CT Assay for Matrix Metallopeptidase 9 (MMP9) Biomarker Activity (AID 2283074)
Conditions: primary human keratinocytes with fibroblasts; actives raise or lower the signal
Active and inactive are the calls of the source. How the source made its calls: active means hit-call score of the fitted dose curve at least 0.9, where 1 is the maximum; inactive means score below 0.9.
Returns: one label drawn from active, inactive

>>> answer_label("CCCCCCCCCCCO")
"inactive"

Returns: the outcome recorded for CC[C@H](NC(=O)c1cc(F)ccc1NS(=O)(=O)c1cccc2cccnc12)c1ccccc1 in this assay.
inactive

Lab log entry: CCCCCCCC[Si](OCC)(OCC)OCC — outcome as called in the assay?
active

Each compound tested received a call. Report the one for O=c1[nH]sc2ccccc12 .
active

// param item: CC1(C)NC(=O)N(c2ccc([N+](=O)[O-])c(C(F)(F)F)c2)C1=O ; yields the recorded call
inactive

# outcome recorded in this test, key = NCc1cccc(C2CCN(C(=O)c3ccc(C#Cc4ccccc4F)o3)CC2)c1
active

GET /call?item= O=C(O)c1ccccc1C(=O)OCc1ccccc1 returns the recorded outcome of this test.
inactive

---

Read-out: succinate dehydrogenase complex iron sulfur subunit B (SDHB), SDHB (gene 6390)
Assay: LTEA_HepaRG_SDHB: Life Technologies and Expression Analysis (LTEA) Assay for succinate dehydrogenase complex iron sulfur subunit B (SDHB) using HepaRG (AID 2283528)
Settings: mRNA level, 48 h; actives raise or lower the signal
Active and inactive are the calls of the source. The calls were made as follows: active = hit-call score of the fitted dose curve at least 0.9, where 1 is the maximum; inactive = score below 0.9.
value_kind: AC50

These recorded examples may help you get a feel for the data.
>>> result_value("COc1cccc([C@H](O)C2CCN(CCc3ccc(F)cc3)CC2)c1OC")
"inactive"
>>> result_value("CN(C)C(=O)C1(N2CCCCC2)CCN(CC[C@@]2(c3ccc(Cl)c(Cl)c3)CN(C(=O)c3ccccc3)CCO2)CC1")
"22.5 µM (active)"
>>> result_value("O=C(O)Cc1cc(I)c(Oc2ccc(O)c(I)c2)c(I)c1")
"inactive"
>>> result_value("CC/C(=C(/CC)c1ccc(O)cc1)c1ccc(O)cc1")
"50 µM (active)"

// switching to the query molecule
Request the reported AC50 associated with CN(C)c1ccc(C(=C2C=CC(=[N+](C)C)C=C2)c2ccc(N(C)C)cc2)cc1
11.1 µM (active)

---

Test: Tanguay_ZF_120hpf_SOMI_legacy: (Legacy) Oregon State University Tanguay Lab 120 Hour Post-fertilization zebrafish Assay for Somite Malformation (AID 2283647)
Records with an inconclusive call do not appear. The source made the active and inactive calls. How the source made its calls: active means hit-call score of the fitted dose curve at least 0.9, where 1 is the maximum; inconclusive means response in the unintended direction; inactive means score below 0.9.
Outcome (select one): active, inactive

Each compound tested received a call. Report the one for Cc1ncc(CO)c(CO)c1O .
inactive

---

Target: Retinoic acid receptor alpha (Homo sapiens) (UniProt P10276)
Sequence (P10276 whole entry, looked up): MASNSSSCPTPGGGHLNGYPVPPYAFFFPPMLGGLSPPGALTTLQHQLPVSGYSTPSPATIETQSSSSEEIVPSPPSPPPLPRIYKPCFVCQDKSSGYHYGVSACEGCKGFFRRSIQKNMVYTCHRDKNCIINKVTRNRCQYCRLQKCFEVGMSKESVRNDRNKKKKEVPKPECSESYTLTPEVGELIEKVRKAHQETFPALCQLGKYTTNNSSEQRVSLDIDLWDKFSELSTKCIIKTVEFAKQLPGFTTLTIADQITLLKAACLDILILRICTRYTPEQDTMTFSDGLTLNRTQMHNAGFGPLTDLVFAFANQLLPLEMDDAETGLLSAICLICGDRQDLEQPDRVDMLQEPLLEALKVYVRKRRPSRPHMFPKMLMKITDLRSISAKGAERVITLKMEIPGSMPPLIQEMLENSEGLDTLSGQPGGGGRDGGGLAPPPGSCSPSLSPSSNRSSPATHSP
Assay: ATG_DR5_RAR_CIS: Attagene CIS-FACTORIAL HepG2 Assay for human Retinoic Acid Receptor Alpha (RARE), DR5 submotif (AID 2282934)
Settings: HepG2 Attagene cis-factorial RARE DR5 reporter, mRNA; actives raise or lower the signal
Active and inactive are the calls of the source. The calls were made as follows: active = hit-call score of the fitted dose curve at least 0.9, where 1 is the maximum; inactive = score below 0.9.
// classify into active, inactive

>>> answer_label("O=C1c2ccccc2C(=O)N1CCc1noc(-c2ccc(CN3CCCCCC3)s2)n1")
"inactive"
>>> answer_label("O=C(O)c1ccccc1-n1cc(C(=O)O)c(=O)c2cc(Nc3c(F)cc(F)cc3Cl)c(Cl)cc21")
"inactive"
>>> answer_label("CC(C)(C)c1cc(/C=C2\\SC(N)=NC2=O)cc(C(C)(C)C)c1O")
"inactive"
>>> answer_label("CN(C)c1ccc(C(=C2C=CC(=[N+](C)C)C=C2)c2ccc(N(C)C)cc2)cc1")
"active"

// return assay outcome for O=C(Nc1ccc(Cl)cc1)Nc1ccc(Cl)c(Cl)c1
inactive

---

Target: human Casein Kinase 1-delta (CK1D), CSNK1D (gene 1453) (UniProt P48730)
Sequence (P48730 whole entry, looked up): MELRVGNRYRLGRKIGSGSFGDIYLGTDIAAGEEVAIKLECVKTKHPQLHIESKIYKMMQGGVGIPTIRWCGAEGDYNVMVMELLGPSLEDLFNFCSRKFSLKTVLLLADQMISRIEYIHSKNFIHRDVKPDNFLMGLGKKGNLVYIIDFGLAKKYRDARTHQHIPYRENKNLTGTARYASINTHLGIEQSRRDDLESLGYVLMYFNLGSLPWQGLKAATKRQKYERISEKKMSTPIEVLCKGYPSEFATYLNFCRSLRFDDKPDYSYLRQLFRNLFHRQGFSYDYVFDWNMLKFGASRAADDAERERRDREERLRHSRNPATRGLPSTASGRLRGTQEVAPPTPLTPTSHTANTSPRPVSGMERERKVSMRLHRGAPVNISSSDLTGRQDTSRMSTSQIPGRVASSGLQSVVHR
Assay: NVS_ENZ_hCK1D: NovaScreen (NVS) Enzymatic Assay for human Casein Kinase 1-delta (CK1D) (AID 2283148)
Results filed as inconclusive are left out. The source made the active and inactive calls. How the source made its calls: active means hit-call score of the fitted dose curve at least 0.9, where 1 is the maximum; inconclusive means response in the unintended direction; inactive means score below 0.9.
Mark one answer only. Choices: T (active), F (inactive)

Previously resolved entries follow.
>>> answer_label("O=C1c2ccccc2C(=O)N1CCc1noc(-c2ccc(CN3CCCCCC3)s2)n1")
"F"
>>> answer_label("CN(C[C@@H](CC[N+]12CCC(C3CCCCC3)(CC1)CC2)c1ccc(Cl)c(Cl)c1)C(=O)c1cc(C(F)(F)F)cc(C(F)(F)F)c1")
"F"
>>> answer_label("Oc1ccc2ccccc2c1")
"T"

Please look at the following molecule next.
Can you look up the reported call for CC(=O)N1CCN(c2ccc(OC[C@H]3CO[C@](Cn4ccnc4)(c4ccc(Cl)cc4Cl)O3)cc2)CC1 for me?
F

---

Read-out: Peroxisomal acyl-coenzyme A oxidase 1 (ACOX1) gene, ACOX1 (gene 51)
Test: LTEA_HepaRG_ACOX1: Life Technologies and Expression Analysis (LTEA) Assay for Peroxisomal acyl-coenzyme A oxidase 1 (ACOX1) gene using HepaRG (AID 2283467)
Conditions: mRNA level, 48 h; actives raise or lower the signal
Calls of active or inactive are those of the source. The calls were made as follows: active = hit-call score of the fitted dose curve at least 0.9, where 1 is the maximum; inactive = score below 0.9.
value_kind: AC50

>>> result_value("CC1(C)NC(=O)N(c2ccc([N+](=O)[O-])c(C(F)(F)F)c2)C1=O")
"63.7 µM (active)"
>>> result_value("O=C(Nc1ccc(Cl)cc1)Nc1ccc(Cl)c(Cl)c1")
"18.5 µM (active)"
>>> result_value("CCN(Cc1cccnc1)C(=O)c1cccc(Cl)c1[C@]1(C)C(=O)N(Cc2ccc(OC)cc2OC)c2ccc(Cl)cc21")
"18.2 µM (active)"
>>> result_value("Cc1ncc(CO)c(CO)c1O")
"inactive"
>>> result_value("CN1C(=O)CC[C@H]1c1cccnc1")
"inactive"

Would you kindly share the measured AC50 for O=c1ccc2ccccc2o1 ?
inactive

Reported AC50 for CC/C(=C(/CC)c1ccc(O)cc1)c1ccc(O)cc1 : what is it?
93.1 µM (active)

Quick one: AC50 of NCc1cccc(C2CCN(C(=O)c3ccc(C#Cc4ccccc4F)o3)CC2)c1 ?
inactive

Quick check: AC50 of CC(O)CC(C)(C)O (stereo unspecified) ?
inactive

Which AC50 value belongs to CCOC(=O)O[C@H](C)OC(=O)c1ccc2c(c1)cc(C(=O)NC1CCN(C(C)C)CC1)n2Cc1cc(-c2ccc(Cl)s2)on1 ?
inactive

For the compound O=C(O)c1ccccc1-n1cc(C(=O)O)c(=O)c2cc(Nc3c(F)cc(F)cc3Cl)c(Cl)cc21 , what AC50 is on record?
inactive

---

Assay: ATG_SREBP_CIS: Attagene CIS-FACTORIAL HepG2 Assay for human Sterol Regulatory Element Binding (SREBP) (AID 2282962)
Details: HepG2 Attagene cis-factorial SREBP reporter, mRNA; actives raise or lower the signal
Activity calls are given as the source filed them. How the source made its calls: active means hit-call score of the fitted dose curve at least 0.9, where 1 is the maximum; inactive means score below 0.9.
value_kind: outcome

>>> result_value("O=C1CCC(C2CCCCC2)CC1")
"inactive"
>>> result_value("COc1cccc([C@H](O)C2CCN(CCc3ccc(F)cc3)CC2)c1OC")
"inactive"
>>> result_value("c1ccc(C[n+]2cccc3ccccc32)cc1")
"inactive"

---

Target: human Serotonin, 5-Hydroxytryptamine Receptor 2A (5HT2A), HTR2A (gene 3356)
Assay: NVS_GPCR_h5HT2A: NovaScreen (NVS) G Protein-Coupled Receptor Assay for human Serotonin, 5-Hydroxytryptamine Receptor 2A (5HT2A) (AID 2283249)
Records with an inconclusive call do not appear. Calls of active or inactive are those of the source. How the source made its calls: active means hit-call score of the fitted dose curve at least 0.9, where 1 is the maximum; inconclusive means response in the unintended direction; inactive means score below 0.9.
Returns: one label drawn from active, inactive

# example entries with known answers
>>> answer_label("CCCCCCCCCCCC[N+](C)(C)C")
"active"
>>> answer_label("OC12N=C(c3ccccc3)SC1Cc1cc(Cl)ccc12 (stereo not given)")
"inactive"
>>> answer_label("CN(C)C(=O)C1(N2CCCCC2)CCN(CC[C@@]2(c3ccc(Cl)c(Cl)c3)CN(C(=O)c3ccccc3)CCO2)CC1")
"active"
>>> answer_label("COc1cc(C(=O)NC2CCN(C)CC2)ccc1Nc1ncc2c(n1)N(C1CCCC1)CC(F)(F)C(=O)N2C")
"active"

# next compound below
// outcome(item) with item = CCN(CC)C(=O)c1cc(S(=O)(=O)Cc2ccccc2)c(N2CCC(c3ccccc3)CC2)cc1N(CC)CCN(C)C
active

---

Target: Estrogen receptor (Homo sapiens) + Estrogen receptor beta (Homo sapiens) (UniProt P03372+Q92731)
Sequence (P03372 whole entry, looked up): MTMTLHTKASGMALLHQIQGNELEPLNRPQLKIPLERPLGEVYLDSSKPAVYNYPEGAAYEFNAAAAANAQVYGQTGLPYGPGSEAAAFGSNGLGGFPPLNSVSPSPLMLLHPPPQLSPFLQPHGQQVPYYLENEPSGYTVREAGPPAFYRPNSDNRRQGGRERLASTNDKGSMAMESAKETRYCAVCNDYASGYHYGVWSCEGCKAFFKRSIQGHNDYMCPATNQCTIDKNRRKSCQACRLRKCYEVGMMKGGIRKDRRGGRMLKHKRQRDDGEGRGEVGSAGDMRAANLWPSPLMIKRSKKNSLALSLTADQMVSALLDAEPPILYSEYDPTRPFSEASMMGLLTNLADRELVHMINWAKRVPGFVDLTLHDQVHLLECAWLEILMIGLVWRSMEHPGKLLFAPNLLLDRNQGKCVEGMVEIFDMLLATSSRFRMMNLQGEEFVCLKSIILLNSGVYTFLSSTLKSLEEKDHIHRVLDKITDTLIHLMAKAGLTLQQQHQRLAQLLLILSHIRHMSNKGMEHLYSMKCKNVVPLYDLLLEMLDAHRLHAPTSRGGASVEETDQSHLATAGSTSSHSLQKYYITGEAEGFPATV
Sequence (Q92731 whole entry, looked up): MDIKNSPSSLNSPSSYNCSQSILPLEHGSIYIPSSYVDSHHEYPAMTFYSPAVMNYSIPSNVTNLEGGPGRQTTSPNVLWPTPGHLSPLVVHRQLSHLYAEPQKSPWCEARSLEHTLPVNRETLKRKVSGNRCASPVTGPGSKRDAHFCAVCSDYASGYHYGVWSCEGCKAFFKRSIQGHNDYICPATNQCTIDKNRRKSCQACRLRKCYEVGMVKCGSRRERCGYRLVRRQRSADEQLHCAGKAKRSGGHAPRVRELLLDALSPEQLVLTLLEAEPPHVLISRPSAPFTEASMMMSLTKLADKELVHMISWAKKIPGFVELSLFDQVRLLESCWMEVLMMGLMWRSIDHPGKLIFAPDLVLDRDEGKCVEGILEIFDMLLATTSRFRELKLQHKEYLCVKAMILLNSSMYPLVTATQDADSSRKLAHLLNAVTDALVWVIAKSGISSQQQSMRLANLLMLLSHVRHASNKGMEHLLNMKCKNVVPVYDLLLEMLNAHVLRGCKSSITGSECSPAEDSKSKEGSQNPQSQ
Assay: OT_ER_ERaERb_0480: Odyssey Thera (OT) 8-hour HEK293T Protein-Complementation Assay for Estrogen Receptor-alpha/-beta Heterodimer (AID 2283352)
Inconclusive results are not listed. Active and inactive are the calls of the source. Rule for the calls: active = hit-call score of the fitted dose curve at least 0.9, where 1 is the maximum; inconclusive = response in the unintended direction; inactive = score below 0.9.
Can you answer with just one of these options? Y = active, N = inactive

Below are worked cases with known answers.
>>> answer_label("c1ccc(C[n+]2cccc3ccccc32)cc1")
"N"
>>> answer_label("Cc1ccc2oc(CN(Cc3ccccc3)C(=O)Nc3c(F)cc(F)cc3F)c(-c3ccc(Cl)cc3)c2c1")
"N"
>>> answer_label("OC12N=C(c3ccccc3)SC1Cc1cc(Cl)ccc12 (stereo not drawn)")
"N"
>>> answer_label("O=c1ccc2ccccc2o1")
"N"
>>> answer_label("COc1cc(C(=O)NC2CCN(C)CC2)ccc1Nc1ncc2c(n1)N(C1CCCC1)CC(F)(F)C(=O)N2C")
"N"

Which result was noted for this compound in the test: O=C=NCCCCCCN=C=O
N

Hi, do you know how O=C(Nc1ccc(Cl)cc1)Nc1ccc(Cl)c(Cl)c1 came out in this test?
N

For CC(=O)N1CCN(c2ccc(OC[C@H]3CO[C@](Cn4ccnc4)(c4ccc(Cl)cc4Cl)O3)cc2)CC1 , which call appears in the assay record?
N

Tell me the recorded outcome of this test for O=C(O)Cn1c(=O)n(Cc2ccc(Br)cc2F)c(=O)c2ccc(Cl)cc21 .
N

Record lookup: outcome of this test for O=C(O)c1ccccc1-n1cc(C(=O)O)c(=O)c2cc(Nc3c(F)cc(F)cc3Cl)c(Cl)cc21 ?
N
